// reported GI50 for each item listed
# protocol_summary: Cytotoxicity against human HL-60 cells by resazurin dye based fluorescence assay
# Assay type: cell-based
Could you give me the number in µM? Just the number is fine.

q: Returns the measured GI50 for the input compound. Input: CC[C@@H](C(=O)[C@@H](C)[C@@H](O)[C@H](C)[C@@H]1O[C@@H]([C@@H](CC)C(=O)O)CC[C@@H]1C)[C@H]1O[C@]2(C=C[C@@H](O)[C@]3(CC[C@@](C)([C@H]4CC[C@](O)(CC)[C@H](C)O4)O3)O2)[C@H](C)C[C@@H]1C
a: 50.5

q: Returns the measured GI50 for the input compound. Input: CC[C@@H](C(=O)[C@@H](C)[C@@H](O)[C@H](C)[C@@H]1O[C@@H]([C@@H](CC)C(=O)ONC(=O)c2ccccc2)CC[C@@H]1C)[C@H]1O[C@]2(C=C[C@H](OC(C)=O)[C@]3(CC[C@@](C)([C@H]4CC[C@](O)(CC)[C@H](C)O4)O3)O2)[C@H](C)C[C@@H]1C
a: 19.1

q: Returns the measured GI50 for the input compound. Input: C#CCNC(=O)[C@H](CC)[C@H]1CC[C@H](C)[C@H]([C@@H](C)[C@H](O)[C@H](C)C(=O)[C@H](CC)[C@H]2O[C@]3(C=C[C@H](O)[C@]4(CC[C@@](C)([C@H]5CC[C@](O)(CC)[C@H](C)O5)O4)O3)[C@H](C)C[C@@H]2C)O1
a: 44.8

* * *

# protocol_summary: Cytotoxicity against human HL-60 cells by resazurin dye based fluorescence assay
# Format: cell-based
readout: GI50 (µM)
Could you give me the number in µM? Just the number is fine.

q: Returns the measured GI50 for the input molecule. Input: CC[C@@H](C(=O)[C@@H](C)[C@@H](O)[C@H](C)[C@@H]1O[C@@H]([C@@H](CC)C(=O)O)CC[C@@H]1C)[C@H]1O[C@]2(C=C[C@H](OC(=O)Nc3ccccc3)[C@]3(CC[C@@](C)([C@H]4CC[C@](O)(CC)[C@H](C)O4)O3)O2)[C@H](C)C[C@@H]1C
a: 57.2

* * *

# protocol_summary: Selectivity index, ratio of GI50 for human HL-60 cells to GI50 for antitrypanosomal activity against Trypanosoma brucei brucei S427
# Type: toxicity
# test_parameters: read-out: RatioGI50
Binary classification by selectivity ratio, with 300 as an inclusive lower bound for condition met; all other cases are condition not met.

Below, 5 compounds whose answers are already recorded.
# structure, class_label
data = [
    ("CC[C@@H](C(=O)[C@@H](C)[C@@H](O)[C@H](C)[C@@H]1O[C@@H]([C@@H](CC)C(=O)O)CC[C@@H]1C)[C@H]1O[C@]2(C=C[C@H](O)[C@]3(CC[C@@](C)([C@H]4CC[C@](O)(CC)[C@H](C)O4)O3)O2)[C@H](C)C[C@@H]1C", "condition not met"),
    ("CC[C@@H](C(=O)[C@@H](C)[C@@H](O)[C@H](C)[C@@H]1O[C@@H]([C@@H](CC)C(=O)O)CC[C@@H]1C)[C@H]1O[C@]2(C=C[C@H](OC(=O)C(C)C)[C@]3(CC[C@@](C)([C@H]4CC[C@](O)(CC)[C@H](C)O4)O3)O2)[C@H](C)C[C@@H]1C", "condition not met"),
    ("CCNC(=O)N(CC)C(=O)O[C@H]1C=C[C@]2(O[C@H]([C@@H](CC)C(=O)[C@@H](C)[C@@H](O)[C@H](C)[C@@H]3O[C@@H]([C@@H](CC)C(=O)O)CC[C@@H]3C)[C@@H](C)C[C@H]2C)O[C@@]12CC[C@@](C)([C@H]1CC[C@](O)(CC)[C@H](C)O1)O2", "condition met"),
    ("CC[C@@H](C(=O)[C@@H](C)[C@@H](O)[C@H](C)[C@@H]1O[C@@H]([C@@H](CC)C(=O)O)CC[C@@H]1C)[C@H]1O[C@]2(C=C[C@@H](O)[C@]3(CC[C@@](C)([C@H]4CC[C@](O)(CC)[C@H](C)O4)O3)O2)[C@H](C)C[C@@H]1C", "condition not met"),
    ("CC[C@@H](C(=O)[C@@H](C)[C@@H](O)[C@H](C)[C@@H]1O[C@@H]([C@@H](CC)C(=O)ONC(=O)c2ccccc2O)CC[C@@H]1C)[C@H]1O[C@]2(C=C[C@H](OC(C)=O)[C@]3(CC[C@@](C)([C@H]4CC[C@](O)(CC)[C@H](C)O4)O3)O2)[C@H](C)C[C@@H]1C", "condition met"),
]

q: Exam item: decide whether the reported selectivity ratio for CC[C@@H](C(=O)[C@@H](C)[C@@H](O)[C@H](C)[C@@H]1O[C@@H]([C@@H](CC)C(=O)ONC(=O)c2ccccc2O)CC[C@@H]1C)[C@H]1O[C@]2(C=C[C@H](O)[C@]3(CC[C@@](C)([C@H]4CC[C@](O)(CC)[C@H](C)O4)O3)O2)[C@H](C)C[C@@H]1C is at least 300.
a: condition not met
